- System: MS2 coat protein
- test summary: apparent KD of MS2 coat protein; designed switch direction (-1 OFF switch, 1 ON switch): 1; higher = weaker reporter binding
- stated conditions: Eterna round: R98; input ligand: none
measured endpoint: apparent KD of MS2 coat protein (nM)
Dear colleague, please return just the value in nM, with no unit written.

Lookup: Which measured apparent KD of MS2 coat protein value corresponds to GGAUCCAUCACAGGAUAUGCUGGACUUUGUCCAGCAGAAGGGUGACAUGAGGAUCACCCAUGUACAAAGGAUCCUAUAUUUAAU [Denovo 28] ?
Found: 377

Lookup: Query (sequence): UGGAUGGUAUGAGGAUAUGCGCGCGAAACGCGCGCAGAAGGCAUGUCAAUAGACAUGAGGAUCACCCAUGUAUUAUCCAUCCAA [MatMod 9 - Jieux - Same State NG 1] ; field requested: apparent KD of MS2 coat protein
Found: 300

Lookup: apparent KD of MS2 coat protein lookup needed for AAAACAUGAGGAUCACCCAUGUAAAGUUCGGAAAGUUAGAGUGAGGAUAUACAAAUUUUUAUUUAGUAGAAGGCACUGGGUACA [JR_SSNG3_Sub032Nu] , thanks.
Found: 26.7

* * *

- System: MS2 coat protein
- test summary: apparent KD of MS2 coat protein; higher = weaker reporter binding
- stated conditions: Eterna round: R107; input ligand: theophylline 2 mM
Mark MET for reported apparent KD of MS2 coat protein of 20 nM or greater; mark NOT MET for anything smaller.

Lookup: Is the recorded value of apparent KD of MS2 coat protein equal to or greater than 20 nM for this sequence? GAGACGUCGGGAAGGAGCGCAUCCAAACCACACAUGAGGAUCACCCAUGUAUAAAUAUGCAUGCAGGUAGGUCGCCCGGUGUCCA [Xegeisge]
Found: MET

Lookup: In plain terms: is recorded apparent KD of MS2 coat protein at least 20 nM for CAGGUUAGGGCGGCCGCCACUGUGGCUACGGUACAUGAGGAUCACCCAUGUUUGUGGUUGAUCUACAGGACCGGGCCCUGACACG [Matidier] ?
Found: MET

Lookup: Record UGUAUGGACUGAAGGAGCGGGUAAUAAACCUGAGGAUCACCCAGGUAAUAGGCGAAAGCCACCCAGGUAGGUCGCAGUCCAUACU ; criterion: apparent KD of MS2 coat protein no lower than 20 nM. Met?
Found: NOT MET

Lookup: Check the entry UCGGGCAGAGCGGCCGCCACUGUAUGGCAUGCGGAUGAAGGAACAUGAGGAUCACCCAUGUAGAUUAGGACCGGGCUUGCGGAGA [p''pmullin] : does apparent KD of MS2 coat protein equal or exceed 20 nM?
Found: NOT MET

Lookup: Hello, I need to know if AAUGUAUGCCACAUGAGGAUCACCCAUGUGCGAGGACCGGUACGGCCGCCACUCGGUCGGUGGUUAAUGAAGAUAUACAAUAAUG [XTryp A #12] has measured apparent KD of MS2 coat protein not below 20 nM. Thanks!
Found: NOT MET

Lookup: Reported apparent KD of MS2 coat protein reaches at least 20 nM for CACAGUGCGAAUUUGAAUUCGCACGAUCCUCGAGGACCGGUACGGCCGCCACUCGCGCGGGUCGUACAUGAGGAUCACCCAUGUC [Quermavebe] ?
Found: MET

Lookup: In plain terms: is recorded apparent KD of MS2 coat protein at least 20 nM for UGUAUGUGAUUUGAUACCAGACCAGCUGGUGGUGCAUGAGGAUCACCCAUGCAGGUUUGGGUCCCUUGGCAGCAAAUCGCAUACU [SS Theo B #24 Ms17] ?
Found: MET

Lookup: # bool: apparent KD of MS2 coat protein of UGUAUGUGAUCUGAUACCAGUCCAACUGGUAAAAGAUGAGGAUCACCCAUCUAAAAUUGGGACCCUUGGCAGCAGAUCGCAUACU >= 20 nM
Found: NOT MET

Lookup: Say whether AAGAACAUGAGGAUCACCCAUGUGAUCGUUCGAGGACCGGUACGGCCGCCACUCGGACCUGUGUCCAGGCACGGGCCGACGCGAC [theeternabot_sameState_MS2_Trp_A_21] shows apparent KD of MS2 coat protein of 20 nM or more.
Found: MET

Lookup: Dear colleague, could you confirm whether ACAUGAGGAUCACCCAUGUAUGACUAUCCUCGAGGACCGGUACGGCCGCCACUCGAACGAGUGGCUCGCGAGUGCGCACUCGCGA [5' end] has apparent KD of MS2 coat protein at or above 20 nM?
Found: NOT MET

* * *

Consider the following sequences; for each one, report its apparent KD of MS2 coat protein.
- System: MS2 coat protein
- test summary: apparent KD of MS2 coat protein; designed switch direction (-1 OFF switch, 1 ON switch): -1; higher = weaker reporter binding
- stated conditions: input ligand: none
Note: unit nM is implicit; provide only the numeric part.

Lookup: Can you share its apparent KD of MS2 coat protein? I mean this sequence: AAUGAUUGAUGAGGAUAUUGUGGUGAAACACGACGAGAAGGCAUAUGUCACAUGAGGAUCACCCAUGUGAGCCUUGUGGAUAUA [Ex NG1 #66] (Eterna round: R96, puzzle: Exclusion NG 1)
Found: 57.9

Lookup: Data request, read-out apparent KD of MS2 coat protein, for GUUUCGAGACGGAGAUCCGACAUGAGGAUCACCCAUGUCUCGCAAGCUUUUUGCUCGUCUUAUACUCCUCUGUUCUC [Elimod 46 - Jieux - Sensor, turn-off variant 1] (Eterna round: R97, puzzle: Sensor, turn-off variant 1)
Found: 21.9

Lookup: # input sequence: GAGUCUCGAAAGGAUAUUUAGGUGUAUGCAGGUAGAGAAGGUUCGACAUGAGGAUCACCCAUGUAAUGGUUUCC [Eternabot (L2) Solution 25] (Eterna round: R97, puzzle: Exclusion 6) ; wanted: its apparent KD of MS2 coat protein
Found: 84

Lookup: What value of measured apparent KD of MS2 coat protein is listed for CAUUGUUACGGAGGAUAUCGUAUUGAGAUACUAUGAGAAGGCCGAAUAAACAUGAGGAUCACCCAUGUGAGACGGAUGCUUGUG [Ex NG1 #35] (Eterna round: R96, puzzle: Exclusion NG 1) ?
Found: 18.9

Lookup: Give its apparent KD of MS2 coat protein value. Item: AUUAAUGUCAAAGGAUAUCAGCACGUGUAGUGCUGAGAAGGUUGAACAUGAGGAUCACCCAUGUAGAUCAUUAAUAAUUUAAUU [ENG1/10-B3] (Eterna round: R96, puzzle: Exclusion NG 1)
Found: 20.6

Lookup: What does the record list as apparent KD of MS2 coat protein for CGCCUGUGAGGAUAUUAGUAGUAGUCAGAAAAGACUAUUACUGAGAAGGUACAUGAGGAUCACCCAUGUUGGCG [Mat - Exclusion 4 - Eli Mod - D41] (Eterna round: R97, puzzle: Exclusion 4) ?
Found: 20

Lookup: Fill in the blank: the reported apparent KD of MS2 coat protein of CGAUAAAAGACAGGAUAUGAGGAGAGAGAGAGAUCAGAAGGGUCACAUGAGGAUCACCCAUGUGAGUUCUCGAUAAGAAACACC [Prohibition 53 - Jieux - Exclusion NG 1] (Eterna round: R96, puzzle: Exclusion NG 1) is ____.
Found: 19.3

Lookup: // query apparent KD of MS2 coat protein value for entry AUAAAUCAUGUAGGAUAUGCGUGGCGAAGCUAUGCAGAAGGACAUGAGGAUCACCCAUGUGCUUCCGUCUGCGUACAGACGGUA [Mat - Exclusion NG 1 - Mod of JL - D10] (Eterna round: R96, puzzle: Exclusion NG 1)
Found: 142

Lookup: Entry AAGAAGCUAGGAUAUACAUGAGGAUCACCCAUGUCUCCAUGGUUGACGAGUUCCGCACGUAGAAGGAGCAAAAC [Aerdidima] (Eterna round: R97, puzzle: Exclusion 3) : reported apparent KD of MS2 coat protein = ?
Found: 56.7

Lookup: Sample GGAUAAAACUGAGGAUAUACGUAUCGCUAGCGAGUAGAAGGCAGACAUGAGGAUCACCCAUGUGAGUUCUCGAUAAGAAACACG [Prohibition 60 - Jieux - Exclusion NG 1] (Eterna round: R96, puzzle: Exclusion NG 1) — what was its apparent KD of MS2 coat protein?
Found: 53.3

Lookup: Requested field: apparent KD of MS2 coat protein. Item: UGCGUUCAAGGAUAUACAUGAGGAUCACCCAUGUGGAUGGCCGUUGUGUGAACACUUAGUAGAAGGUGACACGG [Eternabot (L2) Solution 5] (Eterna round: R97, puzzle: Exclusion 3)
Found: 71.2

Lookup: So what does the record say about apparent KD of MS2 coat protein for CUGAGUUUAGGAUAUACAUGAGGAUCACCCAUGUAAAGUAGCUUGCGUACAGGCAGAUGUAGAAGGAAAUUCGG [Mod of JL 7 - Jieux - Exclusion 3] (Eterna round: R97, puzzle: Exclusion 3) ?
Found: 41.8

Lookup: Which apparent KD of MS2 coat protein is listed for GAGUACUGAGGAUAUACAUGAGGAUCACCCAUGUGUUCCAACUAGGAAUCUAGAAUAUGUAGAAGGCAGUGCUG [salish99_ex3_r4_702] (Eterna round: R97, puzzle: Exclusion 3) ?
Found: 123

Lookup: What value of apparent KD of MS2 coat protein has been recorded for this entry: GAUCCUAGUGUCAGGAUAUGCGAACAAACGCCAAAGCAGAAGGGACUUGAGGAUCACCCAAGUCGCGAUGCGAC [Arbiaran] (Eterna round: R97, puzzle: Brourd's mod of Exclusion 4)
Found: 45.1

Lookup: Would you mind telling me what apparent KD of MS2 coat protein value was observed for GGAUUUACUGAGGAUAUUGCAUCACCCGAUUGAUAAGAAGGCAGAACAUGAGGAUCACCCAUGUGGGUAGUCAA [Bingo-Bango-2] (Eterna round: R97, puzzle: Exclusion 6) ?
Found: 39.3

Lookup: apparent KD of MS2 coat protein lookup needed for UUUAAGUCAGGAUAUCGUUAAUUUAAUAAAUAAAUUUAAUUCGAGAAGGGACAUGAGGAUCACCCAUGUAAUUU [Ex4 #1] (Eterna round: R97, puzzle: Exclusion 4) , thanks.
Found: 34.8
